Numbers sourced from paper PMC5011342.

# Test system: expanded OPCs
# MEASUREMENT_NOTES: cells
# RECORDED_CONDITIONS: Rattus norvegicus, 72 h, read-out: 10 µM (% DMSO), alamarBlue viability, NCC library compound at 10 µM, sheet "All Tox data"
ATTRIBUTE_MEASURED: viability at 10 µM (%)
Give the value in % but do not write % after it.

[[record]]
compound = "OC(CCN1CCCC1)(c1ccccc1)C1CCCCC1 (centres unmarked)"
target_or_test_system = "expanded OPCs"
attribute_measured = "viability at 10 µM"
reported_measurement = 56.9

[[record]]
compound = "NC(=NCc1ccc(Cl)cc1)SCCCc1cnc[nH]1"
target_or_test_system = "expanded OPCs"
attribute_measured = "viability at 10 µM"
reported_measurement = 39.3

[[record]]
compound = "COCCCOc1ccnc(C[S+]([O-])c2nc3ccccc3[nH]2)c1C (centres unmarked)"
target_or_test_system = "expanded OPCs"
attribute_measured = "viability at 10 µM"
reported_measurement = 76.7


Record summary for Cc1[nH]c(=O)c(C#N)cc1-c1ccncc1 : reported viability at 10 µM = 79.6

So for Nc1ccn([C@H]2CC[C@@H](CO)O2)c(=O)n1 , the logged viability at 10 µM turned out to be 79.3

* * *

activation at 2 µM by entry:
# Tested on: acutely dissociated and purified rat OPCs
# MEASUREMENT_NOTES: Acute OL differentiation assay (MBP expression/cell, immunofluorescent image quantification)
# Type: cell-based
# RECORDED_CONDITIONS: Rattus norvegicus, test compound at 2 uM; MBP expression relative to quetiapine; NCC library screen, sheet "All OLga data"; read-out: 2 uM (% Quet)
All answers are understood in %, so give the number only.

[[record]]
compound = "COc1cc(C)c(/C=C/C(C)=C/C=C/C(C)=C/C(=O)O)c(C)c1C [Acitretin]"
reported_measurement = 68.7


Let us move to another entry and its activation at 2 µM.
Nc1nc(F)nc2c1ncn2[C@@H]1O[C@H](CO)[C@@H](O)[C@@H]1O [Fludarabine] yielded activation at 2 µM of 18.7

* * *

# System: expanded OPCs
# MEASUREMENT_NOTES: cells
# RECORDED_CONDITIONS: Rattus norvegicus, 72 h, read-out: 10 µM (% DMSO), alamarBlue viability of expanded OPCs, compound at 10 µM, sheet All Tox data
ATTRIBUTE_MEASURED: viability at 10 µM (%)
Entry rule: numbers only, all in %.

[[record]]
compound = "Cc1ccnc2c1NC(=O)c1cccnc1N2C1CC1"
target_or_test_system = "expanded OPCs"
attribute_measured = "viability at 10 µM"
units = "%"
reported_measurement = 93.3

[[record]]
compound = "C[C@]12CC[C@H](O)CC1=CC[C@@H]1[C@@H]2CC[C@@]2(C)[C@H]1CC[C@]2(C)O"
target_or_test_system = "expanded OPCs"
attribute_measured = "viability at 10 µM"
units = "%"
reported_measurement = 88

[[record]]
compound = "O=C1[C@H](CC[C@H](O)c2ccc(F)cc2)[C@@H](c2ccc(O)cc2)N1c1ccc(F)cc1"
target_or_test_system = "expanded OPCs"
attribute_measured = "viability at 10 µM"
units = "%"
reported_measurement = 48.7

[[record]]
compound = "Cc1nccn1CC1CCc2c(c3ccccc3n2C)C1=O (stereo not drawn)"
target_or_test_system = "expanded OPCs"
attribute_measured = "viability at 10 µM"
units = "%"
reported_measurement = 102


// viability at 10 µM value for O=C1CCc2ccc(OCCCCN3CCN(c4cccc(Cl)c4Cl)CC3)cc2N1 : 11.3

Kindly note the recorded viability at 10 µM for COc1ccccc1OCC(O)CN1CCN(CC(=O)Nc2c(C)cccc2C)CC1 (stereo not drawn) , which is 95.9

Summary for this compound, CC[C@H](C)C(=O)O[C@H]1C[C@H](O)C=C2C=C[C@H](C)[C@H](CC[C@@H](O)C[C@@H](O)CC(=O)O)[C@H]21 : viability at 10 µM is 151

Form field viability at 10 µM, entry O=C1CN=C(c2ccccc2)c2cc([N+](=O)[O-])ccc2N1 : 95

* * *

# System: expanded OPCs
# MEASUREMENT_NOTES: cells
# RECORDED_CONDITIONS: alamarBlue viability of expanded OPCs, compound at 1 µM, relative to DMSO control
Each record is given satisfied if its reported 1 µM (% DMSO) is strictly below 90 % DMSO. Records at or above 90 % DMSO are given not satisfied.

[[record]]
molecule = "CC(C)NCC(O)COc1cccc2ccccc12 (stereo not shown) [Propranolol]"
target_or_test_system = "expanded OPCs"
classification = "satisfied"


Dear colleague, could you confirm whether 1 µM (% DMSO) of Cc1cccc(C)c1OCC(C)N (stereo not shown) [Mexiletine] falls below 90 % DMSO? Thanks. satisfied

Determine whether this molecule shows 1 µM (% DMSO) lower than 90 % DMSO (ties excluded): Cc1cnc(NC(=O)C2=C(O)c3ccccc3S(=O)(=O)N2C)s1 [Meloxicam] not satisfied

* * *

Catalogue of viability at 10 µM readings, one per entry.
# System: expanded OPCs
# MEASUREMENT_NOTES: cells
# RECORDED_CONDITIONS: Rattus norvegicus, 72 h, read-out: 10 µM (% DMSO), alamarBlue viability, NCC library compound at 10 µM, sheet "All Tox data"
# Description: Having established a consistent assay for measuring OL differentiation in vitro, the next step was to utilize this assay to assess the ability of a wide array of compounds to promote OL differentiation. Prior to library screening, we first established the maximum non-toxic dose of each compound in the library. […] Three days later, we assessed viability of the treated cells by measuring AlamarBlue fluorescence, a measure of cell viability (see “Methods” section). […]
// note: answer is a bare numeric in %

// below: answered compounds
[[record]]
compound = "COCCOC(=O)C1=C(C)NC(C)=C(C(=O)OC(C)C)C1c1cccc([N+](=O)[O-])c1 (centres unmarked)"
attribute_measured = "viability at 10 µM"
reported_measurement = 54.5

[[record]]
compound = "Cc1cc(NS(=O)(=O)c2ccc(N)cc2)no1"
attribute_measured = "viability at 10 µM"
reported_measurement = 96.5

[[record]]
compound = "CCN(CC)CCOC(=O)c1ccc(N)cc1"
attribute_measured = "viability at 10 µM"
reported_measurement = 146

[[record]]
compound = "CCc1oc2ccccc2c1C(=O)c1cc(Br)c(O)c(Br)c1"
attribute_measured = "viability at 10 µM"
reported_measurement = 35.6

[[record]]
compound = "CO[C@H]1/C=C/O[C@@]2(C)Oc3c(C)c(O)c4c(O)c(c(/C=N/N5CCN(C6CCCC6)CC5)c(O)c4c3C2=O)NC(=O)/C(C)=C\\C=C\\[C@H](C)[C@H](O)[C@@H](C)[C@@H](O)[C@@H](C)[C@H](OC(C)=O)[C@@H]1C"
attribute_measured = "viability at 10 µM"
reported_measurement = 25.3

[[record]]
compound = "CN(C)CCC(c1ccc(Cl)cc1)c1ccccn1 (centres unmarked)"
attribute_measured = "viability at 10 µM"
reported_measurement = 46.7


Entry C[C@]12CC[C@H](O)CC1=CC[C@@H]1[C@@H]2CC[C@]2(C)C(=O)CC[C@@H]12 [Dehydroepiandrosterone] ; viability at 10 µM = 83.1

COC(=O)C1=C(C)NC(C)=C(C(=O)OCCN(C)Cc2ccccc2)C1c1cccc([N+](=O)[O-])c1 (centres unmarked) yielded viability at 10 µM of 14.3

The reported value for O=C1C(CC[S+]([O-])c2ccccc2)C(=O)N(c2ccccc2)N1c1ccccc1 (centres unmarked) in terms of viability at 10 µM is 88.2

* * *

Property: activation at 2 µM; scope: individual compounds
# Test system: acutely dissociated and purified rat OPCs
# MEASUREMENT_NOTES: Acute OL differentiation assay (MBP expression/cell, immunofluorescent image quantification)
# Type: cell-based
# RECORDED_CONDITIONS: Rattus norvegicus, test compound at 2 uM; MBP expression relative to quetiapine; NCC library screen, sheet "All OLga data"; read-out: 2 uM (% Quet)
The answer is to be given in %; state only the numeric part.

Memo: NCc1ccc(S(N)(=O)=O)cc1 [Mafenide] , reported activation at 2 µM: 28.6

Field activation at 2 µM (entry CC(C)N(CCC(C(N)=O)(c1ccccc1)c1ccccn1)C(C)C (centres unmarked) [Disopyramide] ) reads -10.1

Documented activation at 2 µM of CCC(C)(C)C(=O)O[C@H]1C[C@@H](C)C=C2C=C[C@H](C)[C@H](CC[C@@H]3C[C@@H](O)CC(=O)O3)[C@H]21 : -140

For reference, reported activation at 2 µM for CC(=O)[C@@]1(O)CC[C@H]2[C@@H]3C[C@H](C)C4=CC(=O)C=C[C@]4(C)[C@@]3(F)[C@@H](O)C[C@@]21C stands at 9.3

Entry under test: O=C1NC(=O)C(c2ccccc2)(c2ccccc2)N1 . Its activation at 2 µM was -25.2

Given item O=C1CC[C@@]2(O)[C@H]3Cc4ccc(O)c5c4[C@@]2(CCN3CC2CC2)[C@H]1O5 [Naltrexone] , the value recorded as its activation at 2 µM is 12.8

The compound O=C(O)c1cc(=O)c2c(OCC(O)COc3cccc4oc(C(=O)O)cc(=O)c34)cccc2o1 [Cromolyn Sodium] showed activation at 2 µM equal to -3

Given item Nc1nc2c(ncn2COCCO)c(=O)[nH]1 , the value recorded as its activation at 2 µM is 21.2

Data point: CC1=C(/C=C/C(C)=C/C=C/C(C)=C\C(=O)O)C(C)(C)CCC1 ; activation at 2 µM = -19.2
